assay.text: Cytotoxicity assay (CellTiter Glo) on lymphoma cells
condition.notes: human
assay.readout: CC50 at 48 h (µM)
Could you give me the number in µM? Just the number is fine.

1. Cc1cccc(/C=N/Nc2cc(N3CCOCC3)nc(N3CCOCC3)n2)c1 [Compound 14b]	14

What does the data say about its CC50 at 48 h? Entry: Oc1ccccc1/C=N/Nc1cc(Nc2ccc(F)cc2)nc(Nc2ccc(F)cc2)c1 [Compound 33a] 43

Another: Cc1cccc(/C=N/Nc2cc(Nc3ccc(F)cc3)nc(Nc3ccc(F)cc3)n2)c1 [Compound 19b] 48

----------
System: Huh7 cells
assay.text: Cytotoxicity assay (CellTiter Glo) on hepatocarcinoma cells
Type: cell-based
condition.notes: pyrimidines and pyridines; ratio CC50 FB789 / CC50 Huh7
assay.readout: TSI Huh7
The response must contain the number and no unit.

Here is how some compounds turned out for TSI Huh7.
1) Oc1ccccc1/C=N/Nc1cc(Nc2ccc(F)cc2)nc(Nc2ccc(F)cc2)n1 [Compound 19a]	14.0
2) Oc1ccccc1/C=N/Nc1cc(Nc2ccc(F)cc2)nc(N2CCOCC2)c1 [Compound 38a]	0.1
3) Cc1cccc(/C=N/Nc2cc(Nc3ccc(F)cc3)nc(Nc3ccc(F)cc3)c2)c1 [Compound 33b]	18.6
4) Oc1ccccc1/C=N/Nc1cc(Nc2ccc(F)cc2)nc(Nc2ccc(F)cc2)c1 [Compound 33a]	0.02
5) Cc1cccc(/C=N/Nc2cc(Nc3ccc(F)cc3)nc(N3CCOCC3)c2)c1 [Compound 38b]	10.0
6) Oc1ccccc1/C=N/Nc1cc(Nc2ccc(F)cc2)nc(N2CCOCC2)n1 [Compound 21a]	3.3

Moving on to another compound below.
Query: TSI Huh7; subject: Cc1cccc(/C=N/Nc2cc(Nc3ccc(F)cc3)nc(Nc3ccc(F)cc3)n2)c1 [Compound 19b] 10.2
